Molecular target: T1, complement component 4 (C4) (UniProt P0C0L4 20-675; P0C0L4 680-1446; P0C0L4 1454-1744, limits assumed)
T1 construct: Natural C4 is a three-chain protein (alpha, beta, gamma) made from one precursor; Biotinylated for ELISA, amine-coupled to the chip for SPR; also called b-C4
T1 sequence (P0C0L4 20-675 limits assumed, chain 1 of 3): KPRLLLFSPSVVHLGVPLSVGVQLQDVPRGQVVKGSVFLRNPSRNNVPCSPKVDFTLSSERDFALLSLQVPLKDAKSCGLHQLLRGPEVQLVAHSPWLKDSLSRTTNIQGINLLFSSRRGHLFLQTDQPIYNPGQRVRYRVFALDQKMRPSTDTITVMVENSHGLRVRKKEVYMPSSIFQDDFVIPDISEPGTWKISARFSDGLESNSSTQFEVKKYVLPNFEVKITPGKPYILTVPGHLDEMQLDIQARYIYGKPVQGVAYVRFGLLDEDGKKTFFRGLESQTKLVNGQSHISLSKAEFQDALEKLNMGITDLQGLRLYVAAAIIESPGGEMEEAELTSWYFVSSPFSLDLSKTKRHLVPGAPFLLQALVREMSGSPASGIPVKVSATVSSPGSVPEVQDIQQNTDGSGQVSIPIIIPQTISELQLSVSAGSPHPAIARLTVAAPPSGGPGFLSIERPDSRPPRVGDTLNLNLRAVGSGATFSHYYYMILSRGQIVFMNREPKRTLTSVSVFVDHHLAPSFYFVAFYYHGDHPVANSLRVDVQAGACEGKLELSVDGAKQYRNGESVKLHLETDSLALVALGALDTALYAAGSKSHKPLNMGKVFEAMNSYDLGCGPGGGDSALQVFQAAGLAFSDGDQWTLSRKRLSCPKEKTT
T1 sequence (P0C0L4 680-1446 limits assumed, chain 2 of 3): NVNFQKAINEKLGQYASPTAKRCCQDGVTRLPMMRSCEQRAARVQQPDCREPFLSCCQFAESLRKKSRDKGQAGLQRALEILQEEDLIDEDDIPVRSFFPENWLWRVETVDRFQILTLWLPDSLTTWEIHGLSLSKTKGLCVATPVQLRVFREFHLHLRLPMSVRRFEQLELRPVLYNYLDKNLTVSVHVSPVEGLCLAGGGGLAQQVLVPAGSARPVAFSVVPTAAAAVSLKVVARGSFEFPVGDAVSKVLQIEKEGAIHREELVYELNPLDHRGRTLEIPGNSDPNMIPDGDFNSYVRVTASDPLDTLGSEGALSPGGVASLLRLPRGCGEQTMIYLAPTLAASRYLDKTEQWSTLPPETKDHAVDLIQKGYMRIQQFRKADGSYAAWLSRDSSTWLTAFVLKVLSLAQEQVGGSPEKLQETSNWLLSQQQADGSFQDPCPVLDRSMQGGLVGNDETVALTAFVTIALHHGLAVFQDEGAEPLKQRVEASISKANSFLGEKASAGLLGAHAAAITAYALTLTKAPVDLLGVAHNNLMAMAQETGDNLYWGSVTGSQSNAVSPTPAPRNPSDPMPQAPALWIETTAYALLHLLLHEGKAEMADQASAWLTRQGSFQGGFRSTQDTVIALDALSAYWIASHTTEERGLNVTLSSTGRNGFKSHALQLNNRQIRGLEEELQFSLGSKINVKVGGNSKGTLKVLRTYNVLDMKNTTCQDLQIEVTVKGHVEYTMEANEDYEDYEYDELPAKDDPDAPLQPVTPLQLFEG
T1 sequence (P0C0L4 1454-1744 limits assumed, chain 3 of 3): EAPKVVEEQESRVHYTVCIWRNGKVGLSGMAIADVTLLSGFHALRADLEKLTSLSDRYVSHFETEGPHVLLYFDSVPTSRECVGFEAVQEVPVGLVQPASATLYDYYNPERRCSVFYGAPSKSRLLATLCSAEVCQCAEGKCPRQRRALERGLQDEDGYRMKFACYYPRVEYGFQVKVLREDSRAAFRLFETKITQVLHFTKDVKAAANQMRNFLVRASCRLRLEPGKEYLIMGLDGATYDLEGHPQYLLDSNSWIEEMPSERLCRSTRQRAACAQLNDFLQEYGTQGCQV
Test: SPR, Biacore T200; target immobilized on CM5, His6-tagged Y variant injected; 1:1 Langmuir
Items are presented alongside their recorded Kd.
VALUE TYPE: Kd (nM)

binder="Y02309 (designed binder, From library Ylib002Naive.I) MGSSHHHHHHGSSLAEAKEAAIAELDSKGVGADLIKKIQKAESVEGVQFWKQEILATLPA" value_units=nM value_measured=70
binder="Y02330 (designed binder, From library Ylib002Naive.I) MGSSHHHHHHGSSLAEAKEAAIAELDSKGVGAELIKKIQHAESVEGVQFWKQEILAYLPA" value_units=nM value_measured=48
binder="Y02337 (designed binder, From library Ylib002Naive.I) MGSSHHHHHHGSSLAEAKEAAIAELDSKGVGAAEIKWIQHASTVEGVQGRKQQILAELPA" value_units=nM value_measured=1900
binder="Y02358 (designed binder, From library Ylib002Naive.I) MGSSHHHHHHGSSLAEAKEAAIAELDSKGVGADDIKLIQDAPSVEGVQEIKQFILAQLPA" value_units=nM value_measured=16
binder="Y00792 (designed binder, From library Ylib002Naive.I) MGSSHHHHHHGSSLAEAKEAAIAELDSKGVGADLIKKIQQASSVEGVQFWKQEILAQLPA" value_units=nM value_measured=62
binder="Y02303 (designed binder, From library Ylib002Naive.I) MGSSHHHHHHGSSLAEAKEAAIAELDSKGVGAEEIKWIQNAWSVEGVQIMKQQILAELPA" value_units=nM value_measured=2200
